Test system: Chk-1 kinase (Homo sapiens (Human), UniProt O14757)
Sequence (O14757 whole entry): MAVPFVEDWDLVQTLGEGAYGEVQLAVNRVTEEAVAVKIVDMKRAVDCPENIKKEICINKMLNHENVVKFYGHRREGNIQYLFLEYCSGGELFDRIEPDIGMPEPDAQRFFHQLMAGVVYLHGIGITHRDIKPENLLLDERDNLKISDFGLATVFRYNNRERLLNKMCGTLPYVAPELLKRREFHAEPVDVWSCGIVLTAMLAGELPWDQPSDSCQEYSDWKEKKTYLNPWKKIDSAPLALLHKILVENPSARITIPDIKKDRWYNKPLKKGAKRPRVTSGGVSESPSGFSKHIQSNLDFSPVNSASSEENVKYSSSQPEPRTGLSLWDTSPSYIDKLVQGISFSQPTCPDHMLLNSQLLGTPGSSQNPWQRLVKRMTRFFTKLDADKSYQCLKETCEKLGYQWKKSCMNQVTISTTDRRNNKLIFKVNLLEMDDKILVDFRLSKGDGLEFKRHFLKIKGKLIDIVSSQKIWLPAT
Assay explanation: Chk-1 kinase inhibiting activity (33P-ATP radiometric filter assay, CHKtide substrate)
Measurement conditions: recombinant full length GST-tagged CHK-1 0.5 nM, CHKtide 20 μM, 120 minutes at room temperature; read-out: IC50 against Chk-1 kinase
pIC50: −log10 of the molar value. Counter-ions that a name gives are not always drawn.
Value kind: pIC50

Some solved entries appear below for comparison.
Molecule | Numeric readout
COc1cc(CCNC[C@H]2CN(C(=O)C3CC3)CCO2)c(Cl)cc1NC(=O)Nc1cnc(C#N)cn1 [Example 14, hydrochloride] | 9.40
COc1cc(CCNCC2CCNCC2)c(Cl)cc1NC(=O)Nc1cnc(C#N)cn1 [Example 1, hydrochloride] | 10.00
N#Cc1cnc(NC(=O)Nc2ccc(CCNCC3CCCCC3)c(Cl)c2)cn1 [Example 12, hydrochloride] | 7.52
CC(C)Oc1cc(CCNCCN2CCOCC2)c(Cl)cc1NC(=O)Nc1cnc(C#N)cn1 [Example 8, hydrochloride] | 9.12

[a] COc1cc(CCN[C@H](C)C2CCN(S(C)(=O)=O)CC2)c(Cl)cc1NC(=O)Nc1cnc(C#N)cn1 [Example 13, hydrochloride]
[b] COc1cc(CCN[C@@H](C)CN2CCOCC2)ccc1NC(=O)Nc1cnc(C#N)cn1 [Example 23, hydrochloride]
Query block: Looking only at measured pIC50, which entry is lower, a or b ? Use the label to indicate which entry you chose.
Result block: b
(b: 7.72, a: 9.57)

[a] COc1cc(CCN[C@@H](C)C2CCN(S(C)(=O)=O)CC2)c(Cl)cc1NC(=O)Nc1cnc(C#N)cn1 [Example 11, hydrochloride]
[b] COc1cc(CCNC[C@H]2CN(C(=O)C3CC3)CCO2)ccc1NC(=O)Nc1cnc(C#N)cn1 [Example 21, hydrochloride]
[c] COc1cc(CCNCCN2CCN(C)CC2)c(Cl)cc1NC(=O)Nc1cnc(C#N)cn1 [Example 9, hydrochloride]
Query block: I would appreciate it if you could sort these 3 molecules by pIC50, starting from the smallest number. Your reply should list the labels following the order given in the request.
Result block: b, c, a

[1] CC(C)Oc1cc(CCN[C@@H](C)C(=O)N2CCOCC2)ccc1NC(=O)Nc1cnc(C#N)cn1 [Example 30, hydrochloride]
[2] COc1cc(CCN[C@H](C)CN2CCOCC2)c(Cl)cc1NC(=O)Nc1cnc(C#N)cn1 [Example 24, hydrochloride]
Query block: Which of the two items, 1 and 2 , has the greater recorded pIC50? Your choice should be expressed through its label.
Result block: 2

[P] COc1cc(CCNCC(=O)N2CCN(C)CC2)c(Cl)cc1NC(=O)Nc1cnc(C#N)cn1 [Example 26, hydrochloride]
[Q] COc1cc(CCNC(=O)CN2CCOCC2)c(Cl)cc1NC(=O)Nc1cnc(C#N)cn1 [Example 16, hydrochloride]
[R] CC(C)Oc1cc(CCNCC(=O)N2CCOCC2)c(Cl)cc1NC(=O)Nc1cnc(C#N)cn1 [Example 27, hydrochloride]
Query block: Given 3 molecules, produce a descending ranking by pIC50. Write the labels, ordered according to the request.
Result block: R, P, Q

[I] COc1cc(CCNCCN2CCOCC2)c(Cl)cc1NC(=O)Nc1cnc(C#N)cn1 [Example 7, hydrochloride]
[II] COc1cc(CCN[C@@H](C)C(=O)N2CCOCC2)c(Cl)cc1NC(=O)Nc1cnc(C#N)cn1 [Example 28, hydrochloride]
Query block: Compare the recorded pIC50 of I and II ; state which is larger. I would appreciate it if you answered with the label of your choice.
Result block: II
(II: 9.32, I: 9.10)
